From: patent US11357779B2

# assay.info: Noncompartmental pharmacokinetic parameters (Cmax, Tmax, AUC, Racc) in QD and BID cohorts of Form B
# Type: in vivo, human
# cond: human, plasma, oral, 300 mg, Cohort 2, 300 mg QD of Form B, Day 1; read-out: Cmax, Median
# Experimental: Analysis of plasma concentration versus time data for calculation of standard pharmacokinetic (PK) parameters following oral administration was conducted using Phoenix WinNonlin version 6.3 using actual blood sampling times. […]
parameter.measured: Cmax (ng/mL)
Respond numerically; units are ng/mL and should not be typed.

[Q] Tell me the measured Cmax of CC(C)N1CCN(c2ccc(Nc3ncc4cc5n(c4n3)C3(CCCCC3)CNC5=O)nc2)CC1 [Compound I] , please.
[A] 44.3
